All values here come from paper PMC9482650.

Biological target: T1, SYNJ2BP, P57105
T1 sequence (P57105 8-110, limits assumed, looked up): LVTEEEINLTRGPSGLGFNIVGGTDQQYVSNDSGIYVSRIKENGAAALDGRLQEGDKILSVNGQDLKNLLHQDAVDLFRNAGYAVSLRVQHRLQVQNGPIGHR
Test: holdup assay
Set-up: key: below the threshold = too weak to quantify, mostly under pKd 3.1 to 4
Conditions: plain residues with an end cap or a label only (N-terminal biotin on a linker: ado-ado)
Measured Endpoint: pKd

Recorded pKd, per entry:
GQNMTVSVVI [PRLHR, P49683] | 3.47
SQDPKKPSRV [CBY2, Q8NA61] | 3.66
VISSDDLTEL [CAPN6, Q9Y6Q1] | below the threshold
KKTPVSRSHL [SLC22A3, O75751] | below the threshold
EFKQTSSFLV [JAM1, Q9Y624] | below the threshold

Exam item: Return reported pKd; argument: KAEEKPPSKV [SCN4B, Q8IWT1]
Marked response: below the threshold

Exam item: Next: PALKNGQYWV [CSPG4, Q6UVK1]
Marked response: below the threshold

Exam item: Next: DAAHHDESNC [FMNL3, Q8IVF7]
Marked response: 3.5

Exam item: Next: THHRKIHTRV [ZNF599, Q96NL3]
Marked response: 4.32

Exam item: Next: AHGSTRDQSI [KCNB1, Q14721]
Marked response: below the threshold

Exam item: Next: NSTHNLKDYV [CLDN20, P56880]
Marked response: below the threshold

Exam item: Next: PDSYHRRDFW [U2AF2, P26368]
Marked response: below the threshold
